- System: Mammaliicoccus sciuri
- Assay Explanation: Bactericidal activity against methicillin-resistant coagulase-negative Staphylococcus sciuri after 24 hrs by plate counting method
- Format: functional
- Condition: Mammaliicoccus sciuri, 24 h
Measurement Kind: MBC (µg/mL)
Numbers only, in µg/mL.

Hi team, please reply with MBC for each item in this list.
1. Cc1ccc(C(C)C)c(O)c1
2. COc1cc(O)c(C(=O)[C@@H]2[C@H](CC=C(C)C)C(C)=CC[C@H]2c2ccccc2)c(O)c1
3. CC(=O)NC[C@H]1CN(c2ccc(N3CCOCC3)c(F)c2)C(=O)O1
4. Cc1onc(-c2ccccc2)c1C(=O)N[C@@H]1C(=O)N2[C@@H]1SC(C)(C)[C@@H]2C(=O)O
5. C[C@H]1COc2c(N3CCN(C)CC3)c(F)cc3c(=O)c(C(=O)O)cn1c23.C[C@H]1COc2c(N3CCN(C)CC3)c(F)cc3c(=O)c(C(=O)O)cn1c23.O
6. CC[C@H]1OC(=O)[C@H](C)[C@@H](O[C@H]2C[C@@](C)(OC)[C@@H](O)[C@H](C)O2)[C@H](C)[C@@H](O[C@@H]2O[C@H](C)C[C@H](N(C)C)[C@H]2O)[C@](C)(O)C[C@@H](C)C(=O)[C@H](C)[C@@H](O)[C@]1(C)O
7. CN(C)[C@@H]1C(O)=C(C(N)=O)C(=O)[C@@]2(O)C(O)=C3C(=O)c4c(O)cccc4[C@@](C)(O)[C@H]3C[C@@H]12
8. CN[C@H](CC(C)C)C(=O)N[C@H]1C(=O)N[C@@H](CC(N)=O)C(=O)N[C@H]2C(=O)N[C@H]3C(=O)N[C@H](C(=O)N[C@H](C(=O)O)c4cc(O)cc(O)c4-c4cc3ccc4O)[C@H](O)c3ccc(c(Cl)c3)Oc3cc2cc(c3O[C@@H]2O[C@H](CO)[C@@H](O)[C@H](O)[C@H]2O[C@H]2C[C@](C)(N)[C@H](O)[C@H](C)O2)Oc2ccc(cc2Cl)[C@H]1O

Response line:
64
1
0.5
1
0.5
1
0.5
0.5

* * *

- Tested on: Staphylococcus haemolyticus
- Assay Explanation: Antimicrobial activity against methicillin-resistant coagulase-negative Staphylococcus haemolyticus assessed as resistant isolates after 24 hrs by broth microdilution method
- Assay type: functional
Measurement Kind: Activity (%)
Answers are plain numbers, in %.

Form field Activity, entry CN[C@H](CC(C)C)C(=O)N[C@H]1C(=O)N[C@@H](CC(N)=O)C(=O)N[C@H]2C(=O)N[C@H]3C(=O)N[C@H](C(=O)N[C@H](C(=O)O)c4cc(O)cc(O)c4-c4cc3ccc4O)[C@H](O)c3ccc(c(Cl)c3)Oc3cc2cc(c3O[C@@H]2O[C@H](CO)[C@@H](O)[C@H](O)[C@H]2O[C@H]2C[C@](C)(N)[C@H](O)[C@H](C)O2)Oc2ccc(cc2Cl)[C@H]1O [VANCOMYCIN] : 0

# context switch: different compound, same Activity
Form field Activity, entry C[C@H]1COc2c(N3CCN(C)CC3)c(F)cc3c(=O)c(C(=O)O)cn1c23.C[C@H]1COc2c(N3CCN(C)CC3)c(F)cc3c(=O)c(C(=O)O)cn1c23.O [LEVOFLOXACIN] : 59

* * *

- System: Mammaliicoccus sciuri
- Assay Explanation: Bactericidal activity against methicillin-susceptible coagulase-negative Staphylococcus sciuri after 24 hrs by plate counting method
- Type: functional
Measurement Kind: MBC90
Report the figure along with its unit, number first.

Previously resolved entries follow.
Form field MBC90, entry C[C@H]1COc2c(N3CCN(C)CC3)c(F)cc3c(=O)c(C(=O)O)cn1c23.C[C@H]1COc2c(N3CCN(C)CC3)c(F)cc3c(=O)c(C(=O)O)cn1c23.O : 4 µg/mL

Form field MBC90, entry Cc1onc(-c2ccccc2)c1C(=O)N[C@@H]1C(=O)N2[C@@H]1SC(C)(C)[C@@H]2C(=O)O : 8 µg/mL

Form field MBC90, entry COc1cc(O)c(C(=O)[C@@H]2[C@H](CC=C(C)C)C(C)=CC[C@H]2c2ccccc2)c(O)c1 : 4 µg/mL

Form field MBC90, entry CC(=O)NC[C@H]1CN(c2ccc(N3CCOCC3)c(F)c2)C(=O)O1 : 4 µg/mL

Hi team, please reply with MBC90 for each item in this list.
1. CC1(C)S[C@@H]2[C@H](NC(=O)[C@H](N)c3ccccc3)C(=O)N2[C@H]1C(=O)O
2. Cc1ccc(C(C)C)c(O)c1
3. CN[C@H](CC(C)C)C(=O)N[C@H]1C(=O)N[C@@H](CC(N)=O)C(=O)N[C@H]2C(=O)N[C@H]3C(=O)N[C@H](C(=O)N[C@H](C(=O)O)c4cc(O)cc(O)c4-c4cc3ccc4O)[C@H](O)c3ccc(c(Cl)c3)Oc3cc2cc(c3O[C@@H]2O[C@H](CO)[C@@H](O)[C@H](O)[C@H]2O[C@H]2C[C@](C)(N)[C@H](O)[C@H](C)O2)Oc2ccc(cc2Cl)[C@H]1O

Response line:
128 µg/mL
512 µg/mL
4 µg/mL

Form field MBC90, entry CN(C)[C@@H]1C(O)=C(C(N)=O)C(=O)[C@@]2(O)C(O)=C3C(=O)c4c(O)cccc4[C@@](C)(O)[C@H]3C[C@@H]12 : 128 µg/mL
